tested on: M. tuberculosis H37Rv growth inhibition; assay: M. tuberculosis H37Rv growth inhibitors, H37Rv strain (AID 1626); settings: measured here: IC90 against H37Rv
Examples of compounds with documented IC90 follow.
Report the figure in µM without appending any unit label.

>>> data_value("Cc1nn(-c2ccccc2)nc1C(=O)c1c(C)[nH]n(-c2ccccc2)c1=O")
13.6

For the compound Cc1ccc(C)c(SCC(=O)OC/C(O)=C(\C#N)c2nc3ccccc3[nH]2)c1 , the measured IC90 on M. tuberculosis H37Rv growth inhibition was 4.9

For the compound N=C1S/C(=C\c2ccc(-c3cccc(Cl)c3)o2)C(=O)N1c1nccs1 , the measured IC90 on M. tuberculosis H37Rv growth inhibition was 13.9

For the compound O=c1oc2ccc3ccccc3c2cc1-c1nc2ccccc2o1 , the measured IC90 on M. tuberculosis H37Rv growth inhibition was 7.33

====

tested on: M. tuberculosis H37Rv growth inhibition; assay: M. tuberculosis H37Rv growth inhibitors, H37Rv strain (AID 1626)
Examples of molecules with documented IC50 follow.

Recorded results for 3 molecules are shown here.
>>> data_value("c1ccc(-c2nnc(SCc3nnc(-c4cccs4)o3)o2)cc1")
"6.34 µM"
>>> data_value("Cc1ccccc1-c1cc(C(=O)Nc2nc3c(s2)CCCC3)c2ccccc2n1")
"4.41 µM"
>>> data_value("Nc1scc(-c2ccncc2)c1Cl")
"5.32 µM"

For the molecule CCCCc1ccc(NC(=O)c2cnccn2)cc1 , the measured IC50 on M. tuberculosis H37Rv growth inhibition was 52.1 µM

For the molecule COc1ccc(CCNC(=O)c2c(N)n(CCN3CCOCC3)c3nc4ccccc4nc23)cc1 , the measured IC50 on M. tuberculosis H37Rv growth inhibition was 11.3 µM

For the molecule CCOC(=O)CNc1ccc(C(=O)OCC)cc1[N+](=O)[O-] , the measured IC50 on M. tuberculosis H37Rv growth inhibition was 3.23 µM

====

tested on: M. tuberculosis H37Rv growth inhibition; experiment: M. tuberculosis H37Rv growth inhibitors, H37Rv strain (AID 1626); conditions: measured here: Vero cell cytotoxicity
Binarize CC50 at 20 µM; below is 1, at or above is -1.

>>> group_label("Cc1[nH]n(-c2ccc(Cl)cc2)c(=O)c1N=Nc1cccnc1")
-1
>>> group_label("Cc1ccccc1-c1cc(C(=O)Nc2nc3c(s2)CCCC3)c2ccccc2n1")
-1
>>> group_label("COc1cc(OC)c2c(-c3ccccc3)cc(=O)oc2c1C(CCN1CCCC(C)C1)c1ccc(N(C)C)cc1 (stereo not given)")
1
>>> group_label("COC(=O)CCCn1c(C)cc(C(=O)CCl)c1C")
-1
>>> group_label("Cn1c(-c2ccccc2)c(C(=O)CCl)c2ccccc21")
1
>>> group_label("CCCCCn1c(=O)c(C(=O)Nc2nc3ccccc3[nH]2)c(O)c2ccccc21")
1

Is CC50 strictly under 20 µM for the entry Cc1nn(-c2ccccc2)c(C)c1C(=O)Nc1nnc(-c2ccco2)o1 ?
-1

Is CC50 strictly under 20 µM for the entry c1ccc(CC2CCN(c3nc4ccccc4n4cnnc34)CC2)cc1 ?
-1

Is CC50 strictly under 20 µM for the entry Cc1ccc(NC(=O)c2nc[nH]c2C(=O)N[C@@H](C)c2ccccc2)cc1 ?
-1

Is CC50 strictly under 20 µM for the entry COc1ccc(N2CCN(C(=O)CN3CCN(c4nc(-c5ccc(F)cc5)cs4)CC3)CC2)cc1 ?
-1

Is CC50 strictly under 20 µM for the entry COc1ccc2c(c1)CCc1cnc(N)nc1-2 ?
-1

Is CC50 strictly under 20 µM for the entry Cc1cc(C)c(C2C3=C(Nc4c2c(C)nn4-c2ccccn2)c2ccccc2C3=O)c(C)c1 (stereo not given) ?
-1

Is CC50 strictly under 20 µM for the entry S=c1[nH]c2ccc3ccccc3c2[nH]1 ?
-1
